- experimental.parameters: the molecule shown is the open-chain precursor; disulfide bond; 53-membered ring; air (after HF deprotection); 2 steps
parameter.measured: ring closure, isolated yield (%)
Numbers only here, please. The scale is %.

Illustrative cases are given below, each with its answer.
Given H-dAla-Cys-Phe-Gly-Gly-Arg-Met-Asp-Arg-Ile-Gly-Ala-Gln-Ser-Gly-Leu-Gly-Cys-Asn-Ser-Phe-Arg-Tyr-OH , state its recorded ring closure, isolated yield. 17

Could you do the same for H-Ala-Cys-Phe-Gly-Gly-Arg-Met-Asp-Arg-Ile-Gly-Ala-Gln-Ser-Gly-Leu-Gly-Cys-Asn-Ser-Phe-Arg-Tyr-OH , please? 14

Now look at this one.
Given H-Val-Cys-Phe-Gly-Gly-Arg-Met-Asp-Arg-Ile-Gly-Ala-Gln-Ser-Gly-Leu-Gly-Cys-Asn-Ser-Phe-Arg-Tyr-OH , state its recorded ring closure, isolated yield. 16

Source of measurements: patent US5159061A
